target: delta-5-desaturase (Rattus norvegicus); construct: the microsomal fraction of a rat river (10 μl), which had been diluted to 3 mg/ml; from tissue; host or cells: rat liver microsomal fraction; assay: Inhibitory activity on delta-5-desaturase (rat liver microsomal fraction, 14C-eicosatrienoic acid, TLC); format: biochemical; settings: test compound at 10 μM, room temperature, 120 minutes
experimental_readout: inhibition at 10 µM (%)

(Q) Can you share its inhibition at 10 µM? I mean this molecule: CC(C)(O)CCSc1nc2cc[nH]c2c(=O)n1-c1ccc(OCC(F)(F)F)cc1
(A) 108

(Q) Can you share its inhibition at 10 µM? I mean this molecule: O=c1c2[nH]ccc2nc(SCC(F)(F)F)n1-c1ccc(OCC(F)(F)F)cc1
(A) 100

(Q) Can you share its inhibition at 10 µM? I mean this molecule: O=C(CCCSc1nc2cc[nH]c2c(=O)n1-c1ccc(OCC(F)(F)F)cc1)N1CCOCC1
(A) 101

(Q) Can you share its inhibition at 10 µM? I mean this molecule: O=c1c2[nH]ccc2nc(SCCCS(=O)(=O)CC2CC2)n1-c1ccc(OCC(F)(F)F)cc1
(A) 99

(Q) Can you share its inhibition at 10 µM? I mean this molecule: O=c1c2cc[nH]c2nc(OCC(F)(F)F)n1-c1ccc(OCC(F)(F)F)c(F)c1
(A) 101

(Q) Can you share its inhibition at 10 µM? I mean this molecule: CCOc1ccc(-n2c(SCCCC(=O)NCCC#N)nc3cc[nH]c3c2=O)cc1
(A) 99

(Q) Can you share its inhibition at 10 µM? I mean this molecule: O=c1c2cc[nH]c2nc(Oc2ccc(F)cc2)n1-c1ccc(OCC(F)(F)F)cc1
(A) 101

(Q) Can you share its inhibition at 10 µM? I mean this molecule: CCC(CC)Sc1nc2c(c(=O)n1-c1ccc(OCC(F)(F)F)cc1)CC(=O)N2
(A) 101

###

molecular target: delta-5-desaturase (Rattus norvegicus, UniProt Q920R3); construct: the microsomal fraction of a rat river (10 μl), which had been diluted to 3 mg/ml; from tissue; host or cells: rat liver microsomal fraction; assay: Inhibitory activity on delta-5-desaturase (rat liver microsomal fraction, 14C-eicosatrienoic acid, TLC); format: biochemical; settings: test compound at 10 μM, room temperature, 120 minutes
Sequence (Q920R3 whole entry): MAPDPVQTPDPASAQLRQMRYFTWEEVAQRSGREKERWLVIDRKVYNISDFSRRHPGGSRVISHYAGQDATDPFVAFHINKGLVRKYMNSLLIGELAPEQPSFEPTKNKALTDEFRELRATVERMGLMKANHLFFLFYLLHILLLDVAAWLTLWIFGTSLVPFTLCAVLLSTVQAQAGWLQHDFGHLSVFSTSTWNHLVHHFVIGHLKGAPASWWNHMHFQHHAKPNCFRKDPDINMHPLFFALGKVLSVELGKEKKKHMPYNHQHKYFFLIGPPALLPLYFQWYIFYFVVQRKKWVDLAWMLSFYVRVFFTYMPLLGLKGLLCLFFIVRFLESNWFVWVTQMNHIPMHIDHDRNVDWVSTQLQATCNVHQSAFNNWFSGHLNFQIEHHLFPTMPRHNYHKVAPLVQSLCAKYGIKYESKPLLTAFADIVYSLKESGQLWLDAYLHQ
experimental_readout: inhibition at 10 µM (%)

(Q) Can you share its inhibition at 10 µM? I mean this compound: O=C(CCCSc1nc2cc[nH]c2c(=O)n1-c1ccc(OCC(F)(F)F)cc1)NCC(F)(F)F
(A) 99

(Q) Can you share its inhibition at 10 µM? I mean this compound: CCSc1nc2c(c(=O)n1-c1ccc(OCC3CC3)cc1)CC(=O)N2
(A) 101

(Q) Can you share its inhibition at 10 µM? I mean this compound: CCCSc1nc2cc[nH]c2c(=O)n1-c1ccc(OCC(F)(F)F)cc1
(A) 100

(Q) Can you share its inhibition at 10 µM? I mean this compound: CCS(=O)(=O)c1nc2[nH]ccc2c(=O)n1-c1ccc(OCC(F)(F)F)cc1
(A) 101

(Q) Can you share its inhibition at 10 µM? I mean this compound: O=C(CCCSc1nc2cc[nH]c2c(=O)n1-c1ccc(OCC(F)(F)F)cc1)N1CCSCC1
(A) 99

(Q) Can you share its inhibition at 10 µM? I mean this compound: O=C(CCCSc1nc2cc[nH]c2c(=O)n1-c1ccc(OCC(F)(F)F)cc1)N1CCCCC1
(A) 100

(Q) Can you share its inhibition at 10 µM? I mean this compound: CCOCCOCCSc1nc2[nH]ccc2c(=O)n1-c1ccc(OCC(F)(F)F)cc1
(A) 101

(Q) Can you share its inhibition at 10 µM? I mean this compound: N#CCCNC(=O)CCCSc1nc2[nH]ccc2c(=O)n1-c1ccc(OCC2CC2(F)F)cc1 (centres unmarked)
(A) 100
